# target-entity: Tubulin alpha chain (Sus scrofa, UniProt P02550)
# Sequence (P02550 whole entry, looked up): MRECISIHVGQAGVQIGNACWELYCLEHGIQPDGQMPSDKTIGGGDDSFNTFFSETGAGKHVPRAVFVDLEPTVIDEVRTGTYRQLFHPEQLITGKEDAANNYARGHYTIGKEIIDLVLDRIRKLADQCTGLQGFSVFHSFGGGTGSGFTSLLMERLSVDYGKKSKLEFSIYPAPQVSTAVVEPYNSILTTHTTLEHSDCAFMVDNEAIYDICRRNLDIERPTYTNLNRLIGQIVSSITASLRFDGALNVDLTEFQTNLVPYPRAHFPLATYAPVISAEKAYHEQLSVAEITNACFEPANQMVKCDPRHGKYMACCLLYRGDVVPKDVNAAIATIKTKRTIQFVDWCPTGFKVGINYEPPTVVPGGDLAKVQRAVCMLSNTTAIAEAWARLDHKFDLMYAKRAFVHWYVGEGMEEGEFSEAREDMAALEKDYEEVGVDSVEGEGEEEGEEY
# assay: Inhibition of tubulin polymerization
pIC50: −log10 of the molar value.
Recorded pIC50, one value per entry.

{"molecule": "COc1ccc(/C=C\\c2cc(OC)c(OC)c(OC)c2)c(O)c1O", "target-entity": "Tubulin alpha chain (Sus scrofa, UniProt P02550)", "comparison-sign": "=", "pIC50": 5.96}
{"molecule": "COc1ccc(/C=C\\c2cc(OC)c(OC)c(OC)c2)cc1OP(=O)([O-])[O-].[Na+].[Na+] [FOSBRETABULIN DISODIUM]", "target-entity": "Tubulin alpha chain (Sus scrofa, UniProt P02550)", "comparison-sign": "<", "pIC50": 4.40}
{"molecule": "COc1cc(C(=O)c2ccc(OC)c(OP(=O)([O-])[O-])c2OP(=O)([O-])[O-])cc(OC)c1OC.[Na+].[Na+].[Na+].[Na+]", "target-entity": "Tubulin alpha chain (Sus scrofa, UniProt P02550)", "comparison-sign": "<", "pIC50": 4.40}
{"molecule": "COc1ccc(C(=O)c2cc(OC)c(OC)c(OC)c2)c(O)c1O [HYDROXYPHENSTATIN]", "target-entity": "Tubulin alpha chain (Sus scrofa, UniProt P02550)", "comparison-sign": "=", "pIC50": 6.09}
